Attribute: IC50
molecular target: human ACC2 (Homo sapiens (Human), UniProt O00763); assay: ACC2 assay (spectrophotometric 384 well assay, NADH-linked coupled lactate dehydrogenase/pyruvate kinase); assay type: biochemical; settings: hACC2 construct lacking 128 N-terminal amino acids; 25° C., 340 nm, 15 minutes
Sequence (O00763 129-2458): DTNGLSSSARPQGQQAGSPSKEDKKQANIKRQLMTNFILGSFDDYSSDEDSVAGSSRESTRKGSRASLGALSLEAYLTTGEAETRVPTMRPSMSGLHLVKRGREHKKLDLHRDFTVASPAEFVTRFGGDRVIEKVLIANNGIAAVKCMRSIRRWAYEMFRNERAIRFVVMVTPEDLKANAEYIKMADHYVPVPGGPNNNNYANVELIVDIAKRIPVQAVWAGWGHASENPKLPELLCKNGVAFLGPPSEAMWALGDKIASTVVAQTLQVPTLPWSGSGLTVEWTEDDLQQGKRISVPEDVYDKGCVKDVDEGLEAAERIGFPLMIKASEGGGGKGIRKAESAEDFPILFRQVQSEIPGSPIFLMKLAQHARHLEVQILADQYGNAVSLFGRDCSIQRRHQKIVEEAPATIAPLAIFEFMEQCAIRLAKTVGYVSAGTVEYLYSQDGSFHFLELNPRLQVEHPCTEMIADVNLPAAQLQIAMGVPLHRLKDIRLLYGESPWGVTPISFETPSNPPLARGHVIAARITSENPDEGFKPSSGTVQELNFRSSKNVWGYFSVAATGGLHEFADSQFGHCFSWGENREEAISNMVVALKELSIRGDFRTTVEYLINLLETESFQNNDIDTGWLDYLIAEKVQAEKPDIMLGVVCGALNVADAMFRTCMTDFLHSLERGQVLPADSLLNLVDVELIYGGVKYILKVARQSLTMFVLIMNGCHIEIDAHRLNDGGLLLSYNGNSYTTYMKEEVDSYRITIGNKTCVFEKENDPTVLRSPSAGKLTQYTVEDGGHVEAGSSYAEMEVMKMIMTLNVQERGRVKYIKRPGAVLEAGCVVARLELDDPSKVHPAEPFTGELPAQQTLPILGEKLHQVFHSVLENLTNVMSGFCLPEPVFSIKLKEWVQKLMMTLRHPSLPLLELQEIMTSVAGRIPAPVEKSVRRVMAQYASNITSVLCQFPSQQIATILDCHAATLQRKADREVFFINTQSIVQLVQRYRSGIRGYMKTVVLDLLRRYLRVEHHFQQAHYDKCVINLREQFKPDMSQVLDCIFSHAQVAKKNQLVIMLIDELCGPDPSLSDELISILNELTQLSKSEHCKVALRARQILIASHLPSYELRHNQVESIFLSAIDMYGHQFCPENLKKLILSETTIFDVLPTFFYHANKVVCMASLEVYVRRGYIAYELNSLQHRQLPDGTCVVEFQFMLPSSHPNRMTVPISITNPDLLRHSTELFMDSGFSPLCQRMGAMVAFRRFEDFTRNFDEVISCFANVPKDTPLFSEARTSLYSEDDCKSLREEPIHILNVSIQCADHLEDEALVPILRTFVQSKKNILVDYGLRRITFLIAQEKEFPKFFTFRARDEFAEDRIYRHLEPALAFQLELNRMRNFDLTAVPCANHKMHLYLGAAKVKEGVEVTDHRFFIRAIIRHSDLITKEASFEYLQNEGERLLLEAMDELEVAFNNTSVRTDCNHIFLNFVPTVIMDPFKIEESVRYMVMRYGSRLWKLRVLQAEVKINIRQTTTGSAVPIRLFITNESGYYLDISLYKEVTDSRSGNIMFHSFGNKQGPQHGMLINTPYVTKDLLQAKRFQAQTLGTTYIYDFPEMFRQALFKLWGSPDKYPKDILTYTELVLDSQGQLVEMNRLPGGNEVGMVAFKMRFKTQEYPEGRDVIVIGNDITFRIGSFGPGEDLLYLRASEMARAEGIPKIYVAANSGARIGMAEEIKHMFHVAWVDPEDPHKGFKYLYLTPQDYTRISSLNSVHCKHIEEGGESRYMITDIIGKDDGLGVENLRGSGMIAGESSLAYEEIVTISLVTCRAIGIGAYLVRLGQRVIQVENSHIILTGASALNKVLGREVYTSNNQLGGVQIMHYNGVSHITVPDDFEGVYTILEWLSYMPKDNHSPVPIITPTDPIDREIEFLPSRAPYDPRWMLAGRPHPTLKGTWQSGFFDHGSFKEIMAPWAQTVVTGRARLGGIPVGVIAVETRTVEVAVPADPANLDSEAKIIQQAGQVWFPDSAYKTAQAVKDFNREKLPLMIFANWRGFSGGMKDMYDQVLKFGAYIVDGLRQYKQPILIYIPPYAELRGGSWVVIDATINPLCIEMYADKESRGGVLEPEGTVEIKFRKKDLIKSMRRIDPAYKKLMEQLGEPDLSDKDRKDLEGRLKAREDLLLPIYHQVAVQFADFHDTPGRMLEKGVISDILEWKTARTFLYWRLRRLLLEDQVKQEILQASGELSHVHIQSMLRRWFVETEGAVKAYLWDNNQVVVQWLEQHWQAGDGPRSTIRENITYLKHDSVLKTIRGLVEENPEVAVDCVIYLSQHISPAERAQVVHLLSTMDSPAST

| Compound | Measure Unit | IC50 |
| --- | --- | --- |
| CCCOc1nccc(N2CC(Oc3ccc([C@H](C)NC(C)=O)cc3)C2)n1 | nM | 8280 |
| CCOc1ccc(N2CC(Oc3ccc([C@H](C)NC(=O)c4cnc(NC(=O)CO)s4)cc3)C2)cc1 | nM | 370 |
| COc1ccc(-c2cnc(N3CC(Oc4ccc(C(C)NC(C)=O)cc4)C3)nc2)cc1 (centres unmarked) | nM | 1470 |
| CCOc1ccc(N2CC(Oc3ccc([C@H](C)NC(=O)C4(C#N)CC4)cc3)C2)cc1 | nM | 1000 |
| CCOc1ccc(N2CC(Oc3ccc([C@H](C)NC(=O)C4(C)CC4)cc3)C2)cc1 | nM | 1150 |
| CC(=O)N[C@@H](C)c1ccc(OC2CN(c3ccc4ccccc4n3)C2)cc1 | nM | 2040 |
| C[C@H](NC(=O)C1CC1)c1ccc(OC2CN(c3ncc(Br)cn3)C2)cc1 | nM | 3880 |
| CC(=O)N[C@@H](C)c1ccc(OC2CN(c3ccc4oc(C)nc4c3)C2)cc1 | nM | 1750 |
| CC(=O)N[C@@H](C)c1ccc(OC2CN(c3ccc(OCC4CC4)nc3C#N)C2)cc1 | nM | 650 |
| CC(=O)N[C@@H](C)c1ccc(OC2CN(c3ccc4oc(-c5ccccc5)nc4c3)C2)cc1 | nM | 1620 |
| CCOc1ccc(N2CC(Oc3ccc([C@H](C)NC(=O)C4CCC4)cc3)C2)cc1 | nM | 480 |
| CC(=O)N[C@@H](C)c1ccc(OC2CN(c3ccc(F)c(C(F)(F)F)n3)C2)cc1 | nM | 290 |
| CC(=O)N[C@@H](C)c1ccc(OC2CN(c3nc4ccccc4nc3C)C2)cc1 | nM | 3050 |
| CCOc1ccc(N2CC(Oc3ccc([C@H](C)NC(=O)COC)cc3)C2)cc1 | nM | 1910 |
| CC(=O)N[C@@H](C)c1ccc(OC2CN(c3c(F)cc(OC4CC4)cc3F)C2)cc1 | nM | 130 |
| CCOc1ccc(N2CC(Oc3ccc([C@H](C)NC(C)=O)cc3)C2)c(F)c1 | nM | 240 |
| CCOc1ccc(N2CC(Oc3ccc([C@H](C)NC(=O)N(C)C)cc3)C2)cc1 | nM | 670 |
| CC(=O)N[C@@H](C)c1ccc(OC2CN(c3noc4ccccc34)C2)cc1 | nM | 750 |
| COc1ccc2nc(N3CC(Oc4ccc([C@H](C)NC(C)=O)cc4)C3)ccc2c1 | nM | 450 |
| CC(=O)N[C@@H](C)c1ccc(OC2CN(c3cnc4ccccc4n3)C2)cc1 | nM | 360 |
| CC(=O)N[C@@H](C)c1ccc(OC2CN(c3ccc4c(c3)OC(F)(F)O4)C2)cc1 | nM | 740 |
| CCOc1ccc(N2CC(Oc3ccc([C@H](C)NC(=O)C4CNC(=O)C4)cc3)C2)cc1 (some centres unmarked) | nM | 5200 |
| CC(=O)N[C@@H](C)c1ccc(OC2CN(c3ccc(OC4CC4)cc3F)C2)cc1 | nM | 110 |
| CCOc1cccc(N2CC(Oc3ccc([C@H](C)NC(C)=O)cc3)C2)n1 | nM | 3620 |
| CC(=O)N[C@@H](C)c1ccc(OC2CN(c3ccc(OC4CCC4)cc3C#N)C2)cc1 | nM | 170 |
| CCOc1ccc(N2CC(Oc3ccc([C@H](C)NC(=O)c4cccnc4)cc3)C2)cc1 | nM | 2310 |

====

molecular target: human ACC2 (Homo sapiens (Human)); assay: ACC2 assay (spectrophotometric 384 well assay, NADH-linked coupled lactate dehydrogenase/pyruvate kinase); assay type: biochemical; details: hACC2 construct lacking 128 N-terminal amino acids; 25° C., 340 nm, 15 minutes
The following molecules are listed with their measured log10 IC50 values.
Attribute Measured: log10 IC50 (log10 of the value in µM)

| Molecule | Attribute Measured | Endpoint Value |
| --- | --- | --- |
| CC(=O)N[C@@H](C)c1ccc(OC2CN(c3ccnc(OC(C)C)c3)C2)cc1 [Example 2.7] | log10 IC50 | 0.31 |
| CCOc1ccc(N2CC(Oc3ccc([C@H](C)NC(=O)c4nc(C)sc4C)cc3)C2)cc1 [Example 8.22] | log10 IC50 | 0.27 |
| CCCOc1ccc(N2CC(Oc3ccc([C@H](C)NC(C)=O)cc3)C2)c(Cl)c1 [Example 2.6] | log10 IC50 | -1.05 |
| CC(=O)N[C@@H](C)c1ccc(OC2CN(c3cccc(C(F)(F)F)c3)C2)cc1 [Example 1.56] | log10 IC50 | -0.82 |
| CC(=O)N[C@@H](C)c1ccc(OC2CN(c3ccc(OCC4CC4(F)F)cc3F)C2)cc1 (stereo partly shown) [Example 1.54] | log10 IC50 | -1.40 |
| CC(=O)N[C@@H](C)c1ccc(OC2CN(c3ccc(C4(C#N)CC4)cn3)C2)cc1 [Example 4.12] | log10 IC50 | 0.03 |
| CCC(=O)N[C@@H](C)c1ccc(OC2CN(c3ncc(C4CC4)cn3)C2)cc1 [Example 9] | log10 IC50 | 0.04 |
